Molecular target: Transthyretin (Homo sapiens)
Assay: Inhibition of wild type TTR aggregation expressed in Escherichia coli assessed as fibril formation at 7.2 uM after 72 hrs relative to untreated-control
Measurement Kind: inhibition (%)
State the answer as a number, implicitly in %.

| Cpd Smiles | Display Unit | inhibition |
| --- | --- | --- |
| Cc1cc(C(=O)Nc2cc(Br)c(O)c(Br)c2)cc(C)c1O | % | 3 |
| Cc1cccc(C)c1C(=O)Nc1cc(Br)c(O)c(Br)c1 | % | 3 |

Attention now shifts to the item below.
[ask] Notebook: pull reported inhibition for Transthyretin (Homo sapiens), entry O=C(Nc1cc(Br)c(O)c(Br)c1)c1cc(Cl)c(O)c(Cl)c1
[reply] 3

---

Assay: Displacement of [125I]triiodothyronine from thyroid hormone receptor at 10 uM by scintillation counting
Measurement Kind: inhibition (%)
State the answer as a number, implicitly in %.

| Cpd Smiles | inhibition, % |
| --- | --- |
| Cc1cccc(C)c1C(=O)Nc1cc(Br)c(O)c(Br)c1 | 6 |

[ask] Any idea what inhibition was measured for Nc1ccccc1C(=O)Nc1cc(Br)c(O)c(Br)c1 ?
[reply] 6

[ask] Any idea what inhibition was measured for O=C(Nc1cc(Br)c(O)c(Br)c1)c1cccc(Br)c1 ?
[reply] 6

[ask] Any idea what inhibition was measured for O=C(Nc1cc(Br)c(O)c(Br)c1)c1cc(C(F)(F)F)ccc1C(F)(F)F ?
[reply] 2

[ask] Any idea what inhibition was measured for O=C(Nc1cc(Br)c(O)c(Br)c1)c1ccccc1[N+](=O)[O-] ?
[reply] 2

[ask] Any idea what inhibition was measured for Cc1cccc(C(=O)Nc2cc(Br)c(O)c(Br)c2)c1 ?
[reply] 2

[ask] Any idea what inhibition was measured for O=C(O)c1ccc(C(=O)Nc2cc(Br)c(O)c(Br)c2)cc1 ?
[reply] 2

[ask] Any idea what inhibition was measured for O=C(Nc1cc(Br)c(O)c(Br)c1)c1cc(Br)cc(Br)c1 ?
[reply] 6

---

Target: Transthyretin (Homo sapiens)
Assay: Inhibition of wild type TTR aggregation expressed in Escherichia coli assessed as fibril formation at 7.2 uM after 72 hrs relative to untreated-control
Could you label it class 1 if measured inhibition is 2% or higher, and class 0 otherwise?

Example cases with answers are listed next.
| Cpd Smiles | Group |
| --- | --- |
| O=C(Nc1cc(Br)c(O)c(Br)c1)c1ccc(F)cc1 | class 1 |
| Cc1ccc(C)c(C(=O)Nc2cc(Br)c(O)c(Br)c2)c1 | class 0 |
| O=C(Nc1cc(Br)c(O)c(Br)c1)c1cc(F)c(O)c(F)c1 | class 1 |

[ask] Would you say O=C(O)c1cccc(C(=O)Nc2cc(Br)c(O)c(Br)c2)c1 shows inhibition at minimum 2%?
[reply] class 1

[ask] Would you say O=C(Nc1cc(Br)c(O)c(Br)c1)c1c(Cl)cccc1Cl shows inhibition at minimum 2%?
[reply] class 0

[ask] Would you say O=C(Nc1cc(Br)c(O)c(Br)c1)c1cc(Br)ccc1Br shows inhibition at minimum 2%?
[reply] class 0

[ask] Would you say O=C(Nc1cc(Br)c(O)c(Br)c1)c1cccc(C(F)(F)F)c1 shows inhibition at minimum 2%?
[reply] class 1

[ask] Would you say Nc1ccc(C(=O)Nc2cc(Br)c(O)c(Br)c2)cc1 shows inhibition at minimum 2%?
[reply] class 1

[ask] Would you say O=C(Nc1cc(Br)c(O)c(Br)c1)c1ccccc1[N+](=O)[O-] shows inhibition at minimum 2%?
[reply] class 1

Cited source: ChEMBL document CHEMBL1140932
